# Subject of test: T1, human G-protein-coupled receptor family C group 5 member D (GPRC5D) (human, UniProt Q9NZD1 1-345)
# T1 construct: whole, on cells; also called human GPRC5D protein
# Protocol: FACS, CHO-K1/GPRC5D
Endpoint label: Top
Answers are plain numbers.

For every record below, what is its Top?
1. 58-H2L3 (antibody, V domains shown, humanized 58F9G10, VH v2 x VL v3) VH: QVQLVQSGAEVKKPGASVKVSCKASGYSFTGYYIHWVRQAPGQGLEWIGYISSYNAATSFNQKFKGRVTFTVDTSTSTVYMELSSLRSEDTAVYYCARTELRGPWFAYWGQGTLVTVSS VL: DTQLTQSPSSLSASVGDRVTMTCSASSSVSYMNWYQQKPGKAPKRLIYDTSKLASGVPSRFSGSGSGTDYTLTISSMQPEDFATYYCQQWSNNPLTFGQGTKLEIK
2. 58-H1L1 (antibody, V domains shown, humanized 58F9G10, VH v1 x VL v1) VH: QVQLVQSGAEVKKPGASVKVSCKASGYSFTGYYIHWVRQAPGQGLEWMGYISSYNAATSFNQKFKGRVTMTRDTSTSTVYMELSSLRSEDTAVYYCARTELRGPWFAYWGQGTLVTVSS VL: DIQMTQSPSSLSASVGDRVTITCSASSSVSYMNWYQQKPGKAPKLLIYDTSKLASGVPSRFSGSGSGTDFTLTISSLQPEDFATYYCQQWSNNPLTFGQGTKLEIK
3. 58-H4L3 (antibody, V domains shown, humanized 58F9G10, VH v4 x VL v3) VH: QVQLVQSGAEVKKPGASVKISCKASGYSFTGYYIHWVKQAPGQGLEWIGYISSYNAATSFNQKFKGRATFTVDTSTSTAYMEFSSLRSEDSAVYYCARTELRGPWFAYWGQGTLVTVSS VL: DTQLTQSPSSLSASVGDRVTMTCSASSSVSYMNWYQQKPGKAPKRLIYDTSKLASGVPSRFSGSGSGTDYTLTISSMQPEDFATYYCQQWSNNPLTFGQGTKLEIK

[91700, 108000, 103000]
